- assay_explanation: Effective concentration required for antiviral activity against punta toro A virus
- Type: functional
pEC50: −log10 of the molar value.
quantity_name: pEC50

given_smiles: O=c1ccc2nnn3c2n1C1O[C@H](C3)[C@@H](O)[C@H]1O
meas_value: < 4.00

---

- System: unidentified adenovirus
- assay_explanation: Effective concentration required for antiviral activity against adenovirus type 1
- Format: functional, organism-based, Human adenovirus 1

given_smiles: O=c1ccc2nnn3c2n1C1O[C@H](C3)[C@@H](O)[C@H]1O
target_of_assay: unidentified adenovirus
EC50: > 100 µM

---

- assay_explanation: Effective concentration required for antiviral activity against west Nile virus
- Format: functional
pEC50: −log10 of the molar value.

given_smiles: O=c1ccc2nnn3c2n1C1O[C@H](C3)[C@@H](O)[C@H]1O
pEC50: < 4.00

---

- Test system: Yellow fever virus
- assay_explanation: Effective concentration required for antiviral activity against yellow fever virus
- Assay type: functional, organism-based
quantity_name: EC50

given_smiles: O=c1ccc2nnn3c2n1C1O[C@H](C3)[C@@H](O)[C@H]1O
quantity_name: EC50
meas_value: > 100 µM

---

- System: Human alphaherpesvirus 1
- assay_explanation: Effective concentration required for antiviral activity against herpes simplex virus type 1

given_smiles: O=c1ccc2nnn3c2n1C1O[C@H](C3)[C@@H](O)[C@H]1O
EC50: > 100 µM

---

- Tested on: Human respirovirus 3
- assay_explanation: Effective concentration required for antiviral activity against Parainfluenza virus
- Type: functional, organism-based
pEC50: −log10 of the molar value.
quantity_name: pEC50

given_smiles: O=c1ccc2nnn3c2n1C1O[C@H](C3)[C@@H](O)[C@H]1O
target_of_assay: Human respirovirus 3
meas_value: < 4.00

---

- Test system: Huh-7
- assay_explanation: Effective concentration required for reduction in subgenomic hepatitis C virus replicon RNA levels in Huh-7 cells after 96 hr of compound exposure
- Assay type: functional, cell-based
- condition_details: Homo sapiens, Huh-7, 96 h
pEC50: −log10 of the molar value.

given_smiles: O=c1ccc2nnn3c2n1C1O[C@H](C3)[C@@H](O)[C@H]1O
pEC50: 4.71

---

- System: Influenza A virus
- assay_explanation: Effective concentration required for antiviral activity against Influenza A virus
- Assay type: functional, organism-based
quantity_name: EC50

given_smiles: O=c1ccc2nnn3c2n1C1O[C@H](C3)[C@@H](O)[C@H]1O
target_of_assay: Influenza A virus
quantity_name: EC50
meas_value: > 100 µM

---

- System: Measles morbillivirus
- assay_explanation: Effective concentration required for antiviral activity against measles virus
- Format: functional, organism-based
quantity_name: EC50

given_smiles: O=c1ccc2nnn3c2n1C1O[C@H](C3)[C@@H](O)[C@H]1O
quantity_name: EC50
meas_value: > 100 µM

---

- System: Human immunodeficiency virus
- assay_explanation: Effective concentration required for antiviral activity against human immunodeficiency virus
- Format: functional, organism-based
- condition_details: Human immunodeficiency virus 1
pEC50: −log10 of the molar value.

given_smiles: O=c1ccc2nnn3c2n1C1O[C@H](C3)[C@@H](O)[C@H]1O
target_of_assay: Human immunodeficiency virus
pEC50: < 4.00

---

- assay_explanation: Effective concentration required for antiviral activity against pinchinde virus
- Assay type: functional
pEC50: −log10 of the molar value.
quantity_name: pEC50

given_smiles: O=c1ccc2nnn3c2n1C1O[C@H](C3)[C@@H](O)[C@H]1O
quantity_name: pEC50
meas_value: < 4.00

---

- assay_explanation: Effective concentration required for antiviral activity against bovine viral diarrhoea virus
- Format: functional, Bovine viral diarrhea virus 1

given_smiles: O=c1ccc2nnn3c2n1C1O[C@H](C3)[C@@H](O)[C@H]1O
EC50: > 100 µM
